Biological target: T1, CCR7 expressed on CHO-K1 cells (UniProt P32248 25-378)
T1 construct: chemokine receptor CCR7, recombinant, on CHO-K1 cells; source: CHO-K1 cells expressing CCR7 only or co-expressing CXCR4 and CCR7
T1 sequence (looked up): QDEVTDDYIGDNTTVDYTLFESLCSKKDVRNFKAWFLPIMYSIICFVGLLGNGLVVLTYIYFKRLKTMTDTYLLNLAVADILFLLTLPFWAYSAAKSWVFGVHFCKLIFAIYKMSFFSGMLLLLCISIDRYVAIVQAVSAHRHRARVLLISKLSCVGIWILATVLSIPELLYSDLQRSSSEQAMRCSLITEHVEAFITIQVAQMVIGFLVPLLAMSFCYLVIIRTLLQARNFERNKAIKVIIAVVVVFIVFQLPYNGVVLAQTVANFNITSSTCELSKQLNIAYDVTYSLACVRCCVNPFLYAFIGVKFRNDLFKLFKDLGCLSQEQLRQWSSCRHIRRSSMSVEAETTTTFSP
Test: radioligand binding; competition on CHO-K1 cells expressing CCR7 only; tracer 0.1 nM 125I-CCL19, increasing concentrations of unlabelled competitor; non-specific binding defined with 300 nM competitor
Settings: one partner purified
PROPERTY MEASURED: IC50 (nM)

[a] CCL21 (ligand, UniProt O00585 24-134, looked up) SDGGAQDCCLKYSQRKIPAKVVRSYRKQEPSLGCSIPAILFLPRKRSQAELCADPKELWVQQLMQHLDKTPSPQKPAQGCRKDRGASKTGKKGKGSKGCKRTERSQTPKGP
[b] CCL19 (ligand, UniProt Q99731 22-98, looked up, also called unlabeled CCL19) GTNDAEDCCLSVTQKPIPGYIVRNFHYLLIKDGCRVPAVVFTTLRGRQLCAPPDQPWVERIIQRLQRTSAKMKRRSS
API: POST /compare with a and b ; response names the item with higher IC50. Your answer should be the label attached to the chosen record.
a
(a: 4.06 nM, b: 1.84 nM)
